target: KRAS-G12D and SOS1 (Homo sapiens, UniProt P01116, G12D); assay: Inhibition of KRAS-G12D/SOS1 binding (Cisbio binding kit, 665/615 ratio), Effect Embodiment A; conditions: read-out: GTP-KRAS-G12D:SOS1 IC50
Sequence (P01116 1-188 isoform P01116-2 G12D): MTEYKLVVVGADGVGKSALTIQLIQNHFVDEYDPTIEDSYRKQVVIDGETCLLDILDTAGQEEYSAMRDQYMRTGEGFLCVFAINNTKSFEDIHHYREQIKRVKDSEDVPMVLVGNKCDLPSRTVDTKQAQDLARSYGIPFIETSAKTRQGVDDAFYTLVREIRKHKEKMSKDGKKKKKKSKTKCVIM
Counter-ions that a name gives are not always drawn.
Quick list: log10 IC50 per entry.
Values reflect log10 of reported IC50 (nM).

MOLECULE | READOUT NUMBER
CO[C@H]1C[C@H]2CC[C@@H](C1)N2C[C@@H](C)COc1nc(N2CC3CCC(C2)N3)c2cc(Cl)c(-c3cc(O)cc4ccccc34)c(F)c2n1 (single isomer, unassigned) | 1.24
CC1OCCN(CCCOc2nc(N3CC4CCC(C3)N4)c3cc(Cl)c(-c4cc(O)cc5ccccc45)c(F)c3n2)C1C (single isomer, unassigned) [Compound 265b] | 1.78
CN(C)C1CN(c2nc(C3CN(C(=N)N)C3)c3cc(Cl)c(-c4cc(O)cc5ccccc45)c(F)c3n2)C1 (single isomer, unassigned) | 3.84
C[C@@H](COc1nc(N2CC3CCC(C2)N3)c2cc(Cl)c(-c3cc(O)cc4ccccc34)c(F)c2n1)CN1C[C@@H](C)O[C@@H](C)C1 (single isomer, unassigned) | 1.06

Now consider a different molecule.
Query: Fill in: log10 IC50 on KRAS-G12D and SOS1 (Homo sapiens, UniProt P01116, G12D), entry Oc1cc(-c2c(Cl)cc3c(N4CC5CCC(C4)N5)nc(OCCCN4CCNCC4)nc3c2F)c2ccccc2c1 (single isomer, unassigned) [Compound 92, dihydrochloride]
Result: 1.57

---

These compounds were tested on KRAS_WT and SOS1 (Homo sapiens); IC50 is the recorded read-out.
Structures can show the parent of a compound that is named as a salt.
Reply with just the number (in nM).

Query: Find IC50 for Oc1cc(-c2c(Cl)cc3c(N4CC5CCC(C4)N5)nc(OCCCN4CCCCC4)nc3c2F)c2ccccc2c1 (single isomer, unassigned) [Compound 66a] on KRAS_WT and SOS1 (Homo sapiens) and write it down.
Result: 1020

Query: // output IC50; input C[C@@H]1C[C@@H](COc2nc(N3CC4CCC(C3)N4)c3cc(Cl)c(-c4cc(O)cc5ccccc45)c(F)c3n2)N(C)C1 (single isomer, unassigned) [Compound 171, dihydrochloride] ; system KRAS_WT and SOS1 (Homo sapiens)
Result: 395

Query: Find the measured IC50 of CC1OCCN(CCCOc2nc(N3CC4CCC(C3)N4)c3cc(Cl)c(-c4cc(O)cc5ccccc45)c(F)c3n2)C1C (single isomer, unassigned) [Compound 265c] with KRAS_WT and SOS1 (Homo sapiens) as test system.
Result: 1280

---

target: KRAS_WT and SOS1 (Homo sapiens, UniProt P01116)
Sequence (P01116 1-188 isoform P01116-2): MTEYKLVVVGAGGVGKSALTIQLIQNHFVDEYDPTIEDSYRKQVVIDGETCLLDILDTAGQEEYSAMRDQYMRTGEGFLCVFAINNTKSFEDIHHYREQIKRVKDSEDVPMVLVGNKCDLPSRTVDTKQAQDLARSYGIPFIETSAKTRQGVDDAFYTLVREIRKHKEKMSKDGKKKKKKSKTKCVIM
Counter-ions that a name gives are not always drawn.
MEASURED METRIC: log10 of IC50 (log10 of the value in µM)
// do not treat as linear: log10 of IC50, unit µM

Known log10 of IC50 results, listed for orientation:
COMPOUND | ASSAY TARGET | log10 of IC50
CN(C)C12CC(COc3nc(N4CC5CCC(C4)N5)c4cc(Cl)c(-c5cc(O)cc6ccccc56)c(F)c4n3)(C1)C2 (single isomer, unassigned) [Compound 127, hydrochloride] | KRAS_WT and SOS1 (Homo sapiens, UniProt P01116) | 0.81
CCc1cccc2cc(O)cc(-c3c(F)cc4c(N5CC6CCC(C5)N6)nc(OCCCN5C[C@@H](C)O[C@@H](C)C5)nc4c3F)c12 (single isomer, unassigned) [Compound 283a, dihydrochloride] | KRAS_WT and SOS1 (Homo sapiens, UniProt P01116) | -0.12
Oc1cc(-c2c(Cl)cc3c(N4CC5CCC(C4)N5)nc(N4CCNCC4)nc3c2F)c2ccccc2c1 (single isomer, unassigned) [Compound 57b] | KRAS_WT and SOS1 (Homo sapiens, UniProt P01116) | 1.65

Query: State log10 of IC50 on KRAS_WT and SOS1 (Homo sapiens, UniProt P01116). Entry: CCc1cccc2cc(O)cc(-c3c(F)cc4c(N5CC6CCC(C5)N6)nc(OCCCN5C6CCC5COC6)nc4c3F)c12 (single isomer, unassigned) [Compound 271a]
Result: -0.75

Query: Report log10 of IC50 on KRAS_WT and SOS1 (Homo sapiens, UniProt P01116) for this entry: CN(C)C1CCC(Oc2nc(N3CC4CCC(C3)N4)c3cc(Cl)c(-c4cc(O)cc5ccccc45)c(F)c3n2)C1 (single isomer, unassigned) [Compound 70d, dihydrochloride]
Result: 1.78

---

target: KRAS-G12D and SOS1 (Homo sapiens, UniProt P01116, G12D); experiment: Inhibition of KRAS-G12D/SOS1 binding (Cisbio binding kit, 665/615 ratio), Effect Embodiment A; conditions: read-out: GTP-KRAS-G12D:SOS1 IC50
Where a name gives a salt, the structure may show the parent alone.
Listing of recorded IC50 by entry.

MOLECULE | RESULT
NCCCCOc1nc(N2CC3CCC(C2)N3)c2cc(Cl)c(-c3cc(O)cc4ccccc34)c(F)c2n1 (single isomer, unassigned) [Compound 95, dihydrochloride] | 0.0482 µM
Cc1ccc2[nH]ncc2c1-c1c(Cl)cc2c(N3CC4CCC(C3)N4)nc(OC[C@@H]3CCCN3C)nc2c1F (single isomer, unassigned) [Compound 90a, hydrochloride] | 0.263 µM
CN1CCC[C@H]1COc1nc(N2CC3CCC(C2)N3)c2cc(Cl)c(-c3cc(O)cc4ccccc34)c(F)c2n1 (single isomer, unassigned) [Compound 39b] | 17.7 µM
CN(C)C(C)(C)COc1nc(N2CC3CCC(C2)N3)c2cc(Cl)c(-c3cc(O)cc4ccccc34)c(F)c2n1 (single isomer, unassigned) [Compound 104, dihydrochloride] | 0.0409 µM

From here, focus on the item given below.
Query: // fetch IC50 given entry CN(C)C1CN(c2nc(N=S3(=O)CCC(N)CC3)c3cc(Cl)c(-c4cc(O)cc5ccccc45)c(F)c3n2)C1 (single isomer, unassigned) [Compound 72c]
Result: > 200 µM

---

target: KRAS-G12D and SOS1 (Homo sapiens, UniProt P01116, G12D); test: Inhibition of KRAS-G12D/SOS1 binding (Cisbio binding kit, 665/615 ratio), Effect Embodiment A; details: read-out: GTP-KRAS-G12D:SOS1 IC50
Structures can show the parent of a compound that is named as a salt.
Entries and their pIC50 values follow.
# pIC50: negative log10 of molar concentration; output just the value

// worked examples, pIC50 included
COMPOUND | pIC50
Oc1cc(-c2c(Cl)cc3c(N4CC5CCC(C4)N5)nc(OC[C@@]45CCCN4C[C@H](F)C5)nc3c2F)c2c(F)c(F)ccc2c1 (single isomer, unassigned) [Compound 214b] | 5.57
N=[S+]1([O-])CC2CCC(C1)N2CCCOc1nc(N2CC3CCC(C2)N3)c2cc(Cl)c(-c3cc(O)cc4ccccc34)c(F)c2n1 (single isomer, unassigned) [Compound 213b] | 6.17
CCc1c(F)ccc2cc(O)cc(-c3c(F)cc4c(N5CC6CCC(C5)N6)nc(OCCCN5C6CCC5COC6)nc4c3F)c12 (single isomer, unassigned) [Compound 215a] | 7.92
C=CCCOCCCN1CCC[C@H]1COc1nc(N2CC3CCC(C2)N3)c2cc(F)c(-c3cc(O)cc4ccc(F)c(CC)c34)c(F)c2n1 (single isomer, unassigned) [Compound 249, dihydrochloride] | 7.62
CNCCCOc1nc(N2CC3CCC(C2)N3)c2cc(Cl)c(-c3cc(O)cc4ccccc34)c(F)c2n1 (single isomer, unassigned) [Compound 93, dihydrochloride] | 7.91
CN(C)C1CN(c2nc(N3CCC4(CCCN4)CC3)c3cc(Cl)c(-c4cc(O)cc5ccccc45)c(F)c3n2)C1 (single isomer, unassigned) [Compound 12a] | 5.15

Query: Read off the recorded pIC50 for CN(C)C1CN(c2nc(N3CCNCC3)c3cc(Cl)c(-c4cc(O)cc5ccccc45)c(F)c3n2)C1 (single isomer, unassigned) [Comparative embodiment a, reference compound]
Result: 5.87

Query: Give the value of pIC50 reported for the following: CN(CCN)c1nc(N2CC(N(C)C)C2)nc2c(F)c(-c3cc(O)cc4ccccc34)c(Cl)cc12 (single isomer, unassigned) [Compound 15b]
Result: 4.28

Query: Consider the compound CN(C)C1CN(c2nc(N3CC4CCC(C3)N4)c3cc(Cl)c(-c4cc(O)cc5cccc(F)c45)c(F)c3n2)C1 (single isomer, unassigned) [Compound 64a] . State its measured pIC50.
Result: 4.50

Query: Supply measured pIC50 of CN1CCC1CCOc1nc(N2CC3CCC(C2)N3)c2cc(Cl)c(-c3cc(O)cc4ccccc34)c(F)c2n1 (single isomer, unassigned) [Compound 112b] in your reply.
Result: 6.92

Query: Output pIC50 of CN(C)C1CN(c2nc(N3C[C@H]4CC[C@@H](C3)N4)c3cnc(-c4cc(O)cc5ccccc45)c(F)c3n2)C1
Result: 7.35

Query: Supply measured pIC50 of C[C@@H]1C[C@@H](COc2nc(N3CC4CCC(C3)N4)c3cc(Cl)c(-c4cc(O)cc5ccccc45)c(F)c3n2)N(C)C1 (single isomer, unassigned) [Compound 171, dihydrochloride] in your reply.
Result: 7.61

Query: Read off the recorded pIC50 for CCc1cccc2cc(O)cc(-c3c(F)cc4c(N5CC6CCC(C5)N6)nc(OCCCN5C6CCC5COC6)nc4c3F)c12 (single isomer, unassigned) [Compound 271b]
Result: 5.03

Query: Provide one value: measured pIC50 of Oc1cc(-c2c(Cl)cc3c(N4CC5CCC(C4)N5)nc(OCC45CCCN4CCC5)nc3c2F)c2ccccc2c1 (single isomer, unassigned) [Compound 199]
Result: 7.88

Query: Please look at this compound and report its pIC50: CCNCCCOc1nc(N2CC3CCC(C2)N3)c2cc(Cl)c(-c3cc(O)cc4ccccc34)c(F)c2n1 (single isomer, unassigned) [Compound 105, dihydrochloride]
Result: 7.65

Query: Answer with reported pIC50 of C[C@H](COc1nc(N2CC3CCC(C2)N3)c2cc(Cl)c(-c3cc(O)cc4ccccc34)c(F)c2n1)CN(C)C (single isomer, unassigned)
Result: 7.29

Query: Fill in pIC50 for record C#Cc1c(F)ccc2cccc(-c3c(F)cc4c(N5CC6CCC(C5)N6)nc(OC[C@@]56CCCN5C[C@H](F)C6)nc4c3F)c12 (single isomer, unassigned) [Compound 279b]
Result: 5.86

Query: Quickly give me recorded pIC50 for C#Cc1c(F)ccc2cc(O)cc(-c3c(Cl)cc4c(N5CC6CCC(C5)N6)nc(OCCCN5C6CCC5COC6)nc4c3F)c12 (single isomer, unassigned) [Compound 255b]
Result: 8.36

Query: Recall and state the measured pIC50 for CN1CCC[C@H]1COc1nc(N2CC3CCC(C2)N3)c2cc(Cl)c(-c3c(F)c(O)cc4ccccc34)c(F)c2n1 (single isomer, unassigned) [Compound 195b] .
Result: 7.24

Query: Return the recorded pIC50 value; entry: Oc1cc(-c2c(Cl)cc3c(N4CC5CCC(C4)N5)nc(OCCN4C5CCC4COC5)nc3c2F)c2ccccc2c1 (single isomer, unassigned) [Compound 124, dihydrochloride]
Result: 7.12

Query: Name the recorded pIC50 of the compound listed here: CCCN(C)CCCOc1nc(N2CC3CCC(C2)N3)c2cc(Cl)c(-c3cc(O)cc4ccccc34)c(F)c2n1 (single isomer, unassigned) [Compound 51a]
Result: 7.51
